experimentDescription: in vivo
conditionLabel: rabbit, sc, 0.5 mg/kg, AUC (area under the concentration vs time curve), model-dependent, subcutaneous, n=6, mean
assayReadout: AUC (ng·h/mL)

smilesStructure: CN1CCc2cccc3c2[C@H]1Cc1ccc(O)c(O)c1-3
assayReadout: AUC
experimentalResult: 309

* * *

experimentDescription: in vivo
conditionLabel: rabbit, topical or ocular, 0.5 mg/kg
assayReadout: CL/F (mL/min/kg)

smilesStructure: CN1CCc2cccc3c2[C@H]1Cc1ccc(O)c(O)c1-3
experimentalResult: 37

* * *

experimentDescription: in vivo
conditionLabel: rabbit, sc, 0.5 mg/kg, Vd (apparent volume of distribution)
assayReadout: Vd/F (L/kg)

compound: CN1CCc2cccc3c2[C@H]1Cc1ccc(O)c(O)c1-3 [Apomorphine, apomorphine]
unitOfMeasurement: L/kg
experimentalResult: 1.45

* * *

experimentDescription: in vivo
conditionLabel: rabbit, sc, 0.5 mg/kg, AUC (area under the concentration vs time curve), model-independent

compound: CN1CCc2cccc3c2[C@H]1Cc1ccc(O)c(O)c1-3 [Apomorphine, apomorphine]
AUC: 297 ng·h/mL

* * *

experimentDescription: in vivo
conditionLabel: rabbit, topical or ocular, 0.5 mg/kg

smilesStructure: CN1CCc2cccc3c2[C@H]1Cc1ccc(O)c(O)c1-3
unitOfMeasurement: s⁻¹
k el: 0.000233

* * *

experimentDescription: in vivo
conditionLabel: rabbit, sc, 0.5 mg/kg
assayReadout: Cmax

smilesStructure: CN1CCc2cccc3c2[C@H]1Cc1ccc(O)c(O)c1-3
experimentalResult: 331 ng/mL

* * *

experimentDescription: in vivo
conditionLabel: rabbit, topical or ocular, 0.5 mg/kg

smilesStructure: CN1CCc2cccc3c2[C@H]1Cc1ccc(O)c(O)c1-3
unitOfMeasurement: µg/mL
Cmax: 0.056

* * *

experimentDescription: in vivo
conditionLabel: rabbit, sc, 0.5 mg/kg

smilesStructure: CN1CCc2cccc3c2[C@H]1Cc1ccc(O)c(O)c1-3
k el (s⁻¹): 0.00035

* * *

experimentDescription: in vivo
conditionLabel: rabbit, sc, 0.5 mg/kg, MRT (mean residence time), model-dependent, subcutaneous, n=6, mean
assayReadout: MRT (min)

compound: CN1CCc2cccc3c2[C@H]1Cc1ccc(O)c(O)c1-3 [Apomorphine, apomorphine]
assayReadout: MRT
unitOfMeasurement: min
experimentalResult: 52

* * *

experimentDescription: in vivo
conditionLabel: rabbit, topical or ocular, 0.5 mg/kg

smilesStructure: CN1CCc2cccc3c2[C@H]1Cc1ccc(O)c(O)c1-3
Tmax: 29.4 min

* * *

experimentDescription: in vivo
conditionLabel: rabbit, sc, 0.5 mg/kg
assayReadout: concentration at 4 h (ng/mL)

molecule: CN1CCc2cccc3c2[C@H]1Cc1ccc(O)c(O)c1-3 [Apomorphine, apomorphine]
unitOfMeasurement: ng/mL
experimentalResult: 3
